Values were extracted from ChEMBL document CHEMBL1145759.

Test: Half life measured in rat plasma
Format: ADME
measured_property: half-life
Units required after the number.

Input line: I'd like to know its half-life. The compound in question is CC[C@@]1(O)C(=O)OCc2c1cc1n(c2=O)Cc2cc3cc(OC(=O)COCCO)ccc3nc2-1
Output line: 7.2 min
